protocol_notes: blockers of an Epstein-Barr virus protein-peptide interaction – biochemical, fluorescence polarization, dose response (AID 1419)
test_context: cell-free protein-peptide binding, 2 h
Calls of active or inactive are those of the source. No rule for the calls is given here.
Select the correct class. Options are True for active, False for inactive and nothing else.

CCN(CC)c1ccc2cc(NC(=O)CCC(=O)O)c(=O)oc2c1; True
N#CC1=C(N)OC2=C(CC/C2=C\c2ccc(F)cc2)C1c1ccc(F)cc1 (stereo not given); True
CCOCCCNc1nc2c(C)cccn2c(=O)c1/C=C1\SC(=S)N(CC(C)C)C1=O; False
Cc1ccc(N=C2NC(=O)/C(=C/c3cn(C)c4ccccc34)S2)cc1C; True
Cn1c(=O)cc2c3c(c(N4CCCCC4)ccc31)C(=O)c1ccccc1-2; True
CC(C)OC(=O)c1c2c(n3ccccc13)C(=O)c1ccccc1C2=O; True
CCCn1nc(-c2ccccc2)c2nc3ccccc3nc21; True
Cc1cc(N(CCCl)CCCl)ccc1/C=N/NC(=O)c1ccco1; False

Proceed to the following item.
Query: What was the test verdict on `NC(=S)n1[nH]c(-c2ccc([N+](=O)[O-])cc2)c(N=Nc2cccc(Cl)c2)c1=O` ?
Result: True

###

protocol_notes: blockers of an Epstein-Barr virus protein-peptide interaction – biochemical, fluorescence polarization, dose response (AID 1419)
test_context: cell-free protein-peptide binding, 2 h
Listed next: entries and their corresponding IC50.

Below, 4 molecules whose answers are already recorded.
Cc1cc(C=C2C(=O)c3ccccc3C2=O)c(C)n1-c1ccccc1; 5.56 µM
CCN(CC)c1ccc2cc(S(=O)(=O)c3ccc(Cl)cc3)c(=O)oc2c1; 6.12 µM
CC1C2C(C)N(C)C(=O)N(C)C2N(C)C(=O)N1C (stereo not drawn); 8.68 µM
O=C(OCCN1C(=O)c2cccc3c(N4CCOCC4)ccc(c23)C1=O)c1cccc(Cl)c1; 2.52 µM

Query: What value of IC50 has been reported for the following molecule? `Cc1cc(C=C2C(=O)c3ccccc3C2=O)c(C)n1-c1ccc(Cl)cc1`
Result: 8.5 µM

Query: Which measured IC50 value corresponds to `COc1ccc(-n2c(C)cc(/C=C3/SC(=S)N(C)C3=O)c2C)cc1` ?
Result: 23.5 µM

Query: Could you tell me which IC50 is on file for `COc1ncnc2c1NC1=C(S2)C(=NCCC(=O)O)CC(C)(C)C1` ?
Result: 0.93 µM

Query: Return reported IC50; argument: `C=CCn1c(=O)/c(=C/c2cc(OC)c(OC)c(OC)c2)s/c1=C(/C#N)c1nc2ccccc2n1C`
Result: 3.5 µM

Query: Name the reported IC50 value associated with the molecule CC1CCc2cccc3c2N1c1cc(C#N)c(C#N)cc1O3 (stereo not drawn)
Result: 6.6 µM

###

protocol_notes: blockers of an Epstein-Barr virus protein-peptide interaction – biochemical, fluorescence polarization, dose response (AID 1419)
test_context: cell-free protein-peptide binding, 2 h
Activity calls are given as the source filed them. No rule for the calls is given here.
Listing: IC50 of selected compounds

// worked examples, IC50 included
C=CCN1CC(c2nc3ccccc3n2CCOc2ccccc2)CC1=O (stereo unspecified); 34.2 µM (inactive)
CCNc1cccc2c1C(=O)N(C)C2=O; 0.96 µM
O=C1c2cccc3cc([N+](=O)[O-])cc(c23)C(=O)N1/N=C/c1ccc(O)cc1O; 10 µM
O=S(=O)(Nc1ccc2c(c1)OCCO2)c1cccc2cccnc12; > 54 µM (inactive)

Query: Field request: IC50 | item: O=C(NC(NC(=S)Nc1ccc(Cl)cc1Cl)C(Cl)(Cl)Cl)c1cccc([N+](=O)[O-])c1 (stereo unspecified)
Result: > 54 µM (inactive)

Query: Entry under review: `CCCCCC(=O)N/N=C/c1ccc(N(C)C)cc1` . Reported IC50?
Result: > 54 µM (inactive)
